Test system: soybean plantlets
PROTOCOL: High-throughput soybean screening for herbicide tolerance (plantlets)
Assay type: in vivo, soybean (A3555)
Design: key: 0 for poor tolerance, high damage, low green coloration; 1 for some tolerance, average damage, moderate green coloration; 2 for good tolerance, low damage, high green coloration
PARTICULARS: TP18; S-3100 spray five weeks post-transformation, scored day four
Field: coloration score. Provide a value for each of the molecules that follow.

Indicate its recorded coloration score; the molecule in question is H_N30: microbial HemG protoporphyrinogen oxidase, SEQ ID NO:5 (SEQ ID NO:14 lacking start methionine) (protein, listed as Erwinia toletana) MKALILFSSREGQTREIASYIANSIKEEMECDVFNILRVEQIDWSQYDRVLIGGSIHYGHFHPAVAKFVKRHLHELQQRSSGFFCVNLTARKADKRTPQTNAYMRKFLLQSPWQPDCCAVFAGALRYTRYRWFDRVMIQLIMRMTGGETDTSKEVEYTDWTQVARFAQEFAHLPGKTQ
0

Indicate its recorded coloration score; the molecule in question is H_N10: E. coli wild-type HemG protoporphyrinogen oxidase, SEQ ID NO:4 (SEQ ID NO:13 lacking start methionine) (protein, listed as Escherichia coli) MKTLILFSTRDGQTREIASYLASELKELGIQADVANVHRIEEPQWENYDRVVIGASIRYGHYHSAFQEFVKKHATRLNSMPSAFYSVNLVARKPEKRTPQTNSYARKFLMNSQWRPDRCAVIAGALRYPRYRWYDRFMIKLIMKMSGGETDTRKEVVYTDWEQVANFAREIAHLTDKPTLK
1

Indicate its recorded coloration score; the molecule in question is H_N50: microbial HemG protoporphyrinogen oxidase, SEQ ID NO:7 (SEQ ID NO:16 lacking start methionine) (protein, listed as Shimwellia blattae) MKTLILFSTRDGQTHKIARHIAGVLEEQGKACELVDLLQPGEPDWSTVECVVLGASIRYGHFHKSFIRFVNTHAQRLNNMPGALFTVNLVARKPEKQSPQTNSYTRKFLAASPWQPQRCQVFAGALRYPRYSWYDRMMIRLIMKMAGGETDTRKEVEYTDWQSVTRFAREIAQLPGETR
1

Indicate its recorded coloration score; the molecule in question is H_N40: microbial HemG protoporphyrinogen oxidase, SEQ ID NO:6 (SEQ ID NO:15 lacking start methionine) (protein, listed as Pectobacterium carotovorum) MKALIVFSSRDGQTRAIASYIANTLKGTLECDVVNVLNANDIDLSQYDRVAIGASIRYGRFHPAVNQFIRKHLTSLQQLPSAFFSVNLTARKPEKRTIQTNAYTRKFLLNSPWQPDLCCVFAGALRYPRYRWFDRVMIQLIMRITGGETDSTKEIEYTDWQQVARFAQDFAQLAAKNPA
1

Indicate its recorded coloration score; the molecule in question is H_N100: microbial HemG protoporphyrinogen oxidase, SEQ ID NO:9 (SEQ ID NO:17 lacking start methionine; variant 20) (protein, listed as Enterobacter cloacae) MKTLILFSTRDGQTREIAAFLASELKEQGIYADVINLNRTEEIAWQEYDRVVIGASIRYGHFHPAVDRFVKKHTETLNSLPGAFFSVNLVARKAEKRTPQTNSYTRKFLLNSPWKPAACAVFAGALRYPRYRWYDRFMIRLIMKMTGGETDTRKEVVYTDWSQVASFAREIVQLTRSSRL
1

Reference source for all entries: patent US12123009B2
